Tested on: BV-173
test-name: cell viability (% survival relative to DMSO control, bortezomib = 0%); higher = less cytotoxic
recorded-conditions: 10000 nM; 72 h
Attribute: cell viability
property-measured: cell viability

{"compound": "O=P(O)(O)C(O)(Cn1ccnc1)P(=O)(O)O [Zoledronic acid]", "property-measured": "cell viability", "measurement": "99%"}
{"compound": "C1CCC(C(CC2CCCCN2)C2CCCCC2)CC1.O=C(O)/C=C\\C(=O)O (stereo not drawn) [Perhexiline]", "property-measured": "cell viability", "measurement": "0.141%"}
{"compound": "C[C@H]1O[C@@H](O[C@H]2[C@@H](O)C[C@H](O[C@H]3[C@@H](O)C[C@H](O[C@H]4CC[C@@]5(C)[C@H](CC[C@@H]6[C@@H]5C[C@@H](O)[C@]5(C)[C@@H](C7=CC(=O)OC7)CC[C@]65O)C4)O[C@@H]3C)O[C@@H]2C)C[C@H](O)[C@@H]1O [Digoxin]", "property-measured": "cell viability", "measurement": "-0.063%"}

###

# reported cell viability; entries follow
System: myeloid leukemia patient primary cells Pat.8
test-name: cell viability (% survival relative to DMSO control); higher = less cytotoxic
recorded-conditions: 1000 nM; 72 h

{"test-smiles": "COc1c(C)c2c(c(O)c1C/C=C(\\C)CCC(=O)O)C(=O)OC2", "cell viability [%]": 91.8}
{"test-smiles": "C[C@H]1O[C@@H](O[C@H]2[C@@H](O)C[C@H](O[C@H]3[C@@H](O)C[C@H](O[C@H]4CC[C@@]5(C)[C@H](CC[C@@H]6[C@@H]5C[C@@H](O)[C@]5(C)[C@@H](C7=CC(=O)OC7)CC[C@]65O)C4)O[C@@H]3C)O[C@@H]2C)C[C@H](O)[C@@H]1O", "cell viability [%]": 6.59}
{"test-smiles": "Sc1ncnc2nc[nH]c12", "cell viability [%]": 75.1}
{"test-smiles": "C[C@]12O[C@H](C[C@]1(O)CO)n1c3ccccc3c3c4c(c5c6ccccc6n2c5c31)CNC4=O", "cell viability [%]": 54.6}

###

Tested on: HL-60
test-name: cell viability (% survival relative to DMSO control); higher = less cytotoxic
recorded-conditions: 0.01 µM; 72 h; co-treatment: DMSO vehicle

{"compound": "O=C(O)CC[C@H](NC(=O)c1ccc([N+](=O)[O-])cc1)C(=O)O [(S)-2-(4-Nitrobenzamido)pentanedioic acid]", "tested-system": "HL-60", "cell viability [%]": 100}
{"compound": "O=C1Oc2ccccc2C(=O)C1CC1C(=O)Oc2ccccc2C1=O (configuration not stated)", "tested-system": "HL-60", "cell viability [%]": 102}
{"compound": "N[C@](CCCCB(O)O)(CCN1CCCCC1)C(=O)O", "tested-system": "HL-60", "cell viability [%]": 97.3}
{"compound": "C=CCc1ccc2c(c1O)C(=O)c1ccccc1C2=O", "tested-system": "HL-60", "cell viability [%]": 103}
{"compound": "O=C(O)c1cc2sccc2[nH]1 [4H-thieno[3,2-b]pyrrole-5-carboxylic acid]", "tested-system": "HL-60", "cell viability [%]": 101}
{"compound": "CC(/C=C1\\SC(=S)N(CC(=O)O)C1=O)=C\\c1ccccc1", "tested-system": "HL-60", "cell viability [%]": 79.3}
{"compound": "COc1c(C)c2c(c(O)c1C/C=C(\\C)CCC(=O)O)C(=O)OC2", "tested-system": "HL-60", "cell viability [%]": 96.4}
